Values compiled from patent US9518022B2.

- assayName: Cytotoxicity assay (AlamarBlue) in mock infected MT-2 cells
- Type: cell-based
- recordedConditions: human
- Experimental: The present assay was used to screen candidate antiviral compounds by quantification of virus spread and production over several rounds of infection in vitro. […] Additionally, viral spread was quantified by measuring luciferase activity via a commercially available luciferase substrate. […] Compound toxicity was quantified 96 hours after treatment with AlamarBlue. […]
In plain terms, low CC50 at 96 h, meaning strictly below 10 µM, gives Satisfied, and everything else gives Not satisfied.

Here are 6 molecules together with their reported answers.
{"molecule": "COc1ccc(/C=C/C2NCCc3cc(OCc4ccccc4)c(OC)cc32)cc1CN1CCCCC1 (stereo not drawn) [EM]", "answerLabel": "Satisfied"}
{"molecule": "COc1cc(C(C)(C)C)c(/C=C/C2NCCc3cc(OCc4ccccc4)c(OC)cc32)cc1OCc1ccccc1 (stereo not drawn) [Example J]", "answerLabel": "Satisfied"}
{"molecule": "COc1cc2c(cc1OCc1ccccc1)CCNC2/C=C/c1cccc(S(C)(=O)=O)c1 (stereo not drawn) [CP]", "answerLabel": "Not satisfied"}
{"molecule": "COc1cc2c(cc1OCc1ccccc1)CCNC2/C=C/c1ccc(N(C)C)cc1C (stereo not drawn) [BG]", "answerLabel": "Satisfied"}
{"molecule": "COc1cc2c(cc1OCc1ccccc1)CCNC2/C=C/c1ccc(N2CCCCC2)cc1 (stereo not drawn) [EA]", "answerLabel": "Satisfied"}
{"molecule": "COc1cc2c(cc1OCc1ccccc1)CCNC2/C=C/c1ccc2c(c1)OCC2 (stereo not drawn) [EG]", "answerLabel": "Not satisfied"}

Req: Hello, I'm reviewing records and need to know if CC50 at 96 h of COc1cc2c(cc1OCc1ccccc1)CCNC2/C=C/c1ccc(-n2cncn2)cc1 (stereo not drawn) [DT] is below 10 µM. Could you check?
Resp: Satisfied
